molecular target: Sodium- and chloride-dependent GABA transporter 1 (Mus musculus) (UniProt P31648); test: Inhibition of NO711 binding to mouse GAT1 expressed in HEK293 cell membranes assessed as residual binding at 1 uM preincubated for 4 hrs followed by NO711 addition and measured after 40 mins by LC-ESI-MS/MS analysis relative to control
property: Activity (%)
Give bare numbers, in %.

Below: 4 compounds and their reported Activity.
O=C(O)[C@H]1CNC[C@@H](CCN/N=C/c2ccc(-c3ccc(F)c(C(F)(F)F)c3)o2)C1 (racemic) :: 72
O=C(O)[C@H]1CNC[C@@H](CCN/N=C/c2ccc(-c3ccc(Br)cc3)o2)C1 (racemic) :: 65
O=C(O)[C@H]1CNC[C@@H](CCN/N=C/c2ccc(-c3cc(C(F)(F)F)cc(C(F)(F)F)c3)o2)C1 (racemic) :: 76
O=Cc1ccc(-c2ccccc2Cl)o1 :: 99

Okay, here is my list. What is Activity for each of these?
1. O=Cc1sccc1-c1ccccc1Cl
2. O=C(O)[C@H]1CNC[C@@H](CN/N=C/c2ccc([N+](=O)[O-])cc2)C1 (racemic)
3. O=Cc1cccn1-c1ccc(C(F)(F)F)cc1
4. O=Cc1ccnc2ccccc12
5. O=Cc1ccccc1-c1ccc(F)cc1F

1. 121
2. 83
3. 87
4. 100
5. 97

* * *

Would you mind telling me the reported Activity of each entry?
target: Sodium- and chloride-dependent GABA transporter 1 (Mus musculus) (UniProt P31648); experiment: Inhibition of NO711 binding to mouse GAT1 expressed in HEK293 cell membranes assessed as residual binding at 1 uM preincubated for 4 hrs followed by NO711 addition and measured after 40 mins by LC-ESI-MS/MS analysis relative to control
Answers are plain numbers, in %.

Study these solved cases before continuing.
O=Cc1cnc(-c2ccccn2)nc1 :: 106
O=C(O)[C@H]1CNC[C@@H](CCN/N=C/c2cnc(-c3ccccn3)nc2)C1 (racemic) :: 83
O=Cc1ccccc1-c1cccs1 :: 107
O=Cc1cnc(-c2cccs2)nc1 :: 103

Hi team, please reply with Activity for each item in this list.
1. O=Cc1ccc(-c2ccccc2C(F)(F)F)o1
2. O=C(O)[C@H]1CNC[C@@H](CN/N=C/c2cccc(-c3ccc(Cl)cc3)c2)C1 (racemic)

90
52

* * *

molecular target: Sodium- and chloride-dependent GABA transporter 1 (Mus musculus); assay: Inhibition of NO711 binding to mouse GAT1 expressed in HEK293 cell membranes assessed as residual binding at 1 uM preincubated for 4 hrs followed by NO711 addition and measured after 40 mins by LC-ESI-MS/MS analysis relative to control
Could you mark each record y if its Activity falls strictly under 90%, and n if it equals or exceeds it?

O=C(O)[C@H]1CNC[C@@H](CN/N=C/c2sccc2-c2ccccc2)C1 (racemic) :: y
O=Cc1cnc(-c2ccccc2F)nc1 :: n
O=Cc1ccc2ccccc2n1 :: n
O=Cc1ccc(-c2ccc(Br)cc2)o1 :: n
O=Cc1cccc(-c2ccccc2)c1 :: n
O=C(O)[C@H]1CNC[C@@H](CN/N=C/c2sccc2-c2ccc(F)cc2F)C1 (racemic) :: y

Is Activity of O=C(O)[C@H]1CNC[C@@H](CN/N=C/c2cnc(-c3ccccc3F)nc2)C1 (racemic) strictly below 90%?
y

Same lookup for O=C(O)[C@H]1CNC[C@@H](CN/N=C/c2ccc(-c3cccc(C(F)(F)F)c3)o2)C1 (racemic) , please.
y

// next record O=C(O)[C@H]1CNC[C@@H](CN/N=C/c2csc3ccccc23)C1 (racemic)
y

* * *

biological target: Sodium- and chloride-dependent GABA transporter 1 (Mus musculus) (UniProt P31648); assay: Inhibition of NO711 binding to mouse GAT1 expressed in HEK293 cell membranes assessed as residual binding at 1 uM preincubated for 4 hrs followed by NO711 addition and measured after 40 mins by LC-ESI-MS/MS analysis relative to control
Decide by Activity: equal to or exceeding 90% means fulfilled, less means not fulfilled.

Before answering, review these 10 worked examples.
O=C(O)[C@H]1CNC[C@@H](CCN/N=C/c2ccco2)C1 (racemic) :: not fulfilled
Cc1ccsc1-c1ccccc1/C=N/NCC[C@@H]1CNC[C@H](C(=O)O)C1 (racemic) :: not fulfilled
O=Cc1sccc1-c1ccccc1F :: fulfilled
COc1cc(C=O)cc(OC)c1O :: fulfilled
O=C(O)[C@H]1CNC[C@@H](CN/N=C/c2cccc(Oc3ccccc3)c2)C1 (racemic) :: not fulfilled
O=C(O)[C@H]1CNC[C@@H](CN/N=C/c2ccc(-c3ccccc3OC(F)(F)F)o2)C1 (racemic) :: not fulfilled
O=Cc1ccc(-c2ccc(Cl)cc2F)o1 :: fulfilled
O=C(O)[C@H]1CNC[C@@H](CCN/N=C/c2ccc(-c3ccccc3OC(F)(F)F)o2)C1 (racemic) :: not fulfilled
O=C(O)[C@H]1CNC[C@@H](CN/N=C/c2sccc2-c2ccc(Cl)cc2Cl)C1 (racemic) :: not fulfilled
O=C(O)[C@H]1CNC[C@@H](CN/N=C/c2ccc(C#Cc3ccccc3)s2)C1 (racemic) :: not fulfilled

Please check the record Cn1c(/C=N/NC[C@@H]2CNC[C@H](C(=O)O)C2)ccc1-c1ccc(Cl)cc1 (racemic) and state if its Activity is at or above 90%.
not fulfilled

Moving on to the next compound: COc1cccc(F)c1-c1ccccc1/C=N/NC[C@@H]1CNC[C@H](C(=O)O)C1 (racemic)
not fulfilled

Now try COc1ccc(F)cc1-c1ccccc1/C=N/NC[C@@H]1CNC[C@H](C(=O)O)C1 (racemic) .
not fulfilled

// repeat for O=C(O)[C@H]1CNC[C@@H](CN/N=C/c2sccc2-n2cccc2)C1 (racemic) and report
not fulfilled

* * *

tested on: Betaine/GABA transporter BGT1 (Mus musculus); experiment: Inhibition of mouse GAT2 expressed in HEK293 cells assessed as reduction in [3H]GABA uptake at 100 uM preincubated for 25 mins followed by [3H]GABA addition and measured after 10 mins by liquid scintillation counting method relative to control
property: inhibition (%)
Answers are plain numbers, in %.

O=C(O)[C@H]1CNC[C@@H](CN/N=C/c2ccc(-c3cccc4ccccc34)o2)C1 (racemic) :: 64
O=C(O)[C@H]1CNC[C@@H](CN/N=C/c2ccc(-c3cc(C(F)(F)F)cc(C(F)(F)F)c3)o2)C1 (racemic) :: 84

State the recorded inhibition for every item in the following list.
1. O=C(O)[C@H]1CNC[C@@H](CN/N=C/c2ccc(-c3ccc(C(F)(F)F)cc3Cl)o2)C1 (racemic)
2. O=C(O)[C@H]1CNC[C@@H](CN/N=C/c2ccc(-c3cc(C(F)(F)F)ccc3Cl)o2)C1 (racemic)

[65, 91]

* * *

What Activity was measured for each of the following?
molecular target: Sodium- and chloride-dependent GABA transporter 1 (Mus musculus) (UniProt P31648); assay: Inhibition of NO711 binding to mouse GAT1 expressed in HEK293 cell membranes assessed as residual binding at 1 uM preincubated for 4 hrs followed by NO711 addition and measured after 40 mins by LC-ESI-MS/MS analysis relative to control
Answers are plain numbers, in %.

Consider the reported Activity for these molecules:
O=C(O)[C@H]1CNC[C@@H](CN/N=C/c2ccccc2-c2cccs2)C1 (racemic) :: 87
O=C(O)[C@H]1CNC[C@@H](CN/N=C/c2ccnc3ccccc23)C1 (racemic) :: 74
O=Cc1ccc(-c2ccc(F)c(C(F)(F)F)c2)o1 :: 99
O=C(O)[C@H]1CNC[C@@H](CN/N=C/c2ccc(-c3ccc(F)c(C(F)(F)F)c3)o2)C1 (racemic) :: 36
O=Cc1cncnc1 :: 118

Report Activity for each item below.
1. O=Cc1cccc(Oc2ccccc2)c1
2. O=Cc1cnc(NCc2ccccc2)nc1
3. O=C(O)[C@H]1CNC[C@@H](CN/N=C/c2ccc(-c3cc(C(F)(F)F)ccc3Cl)o2)C1 (racemic)
4. COc1cc(F)ccc1-c1ccccc1/C=N/NC[C@@H]1CNC[C@H](C(=O)O)C1 (racemic)
5. O=Cc1ccc[nH]1
6. O=Cc1sccc1-c1ccc(Cl)cc1Cl
7. COc1ccc(C=O)cc1

109
118
38
80
107
116
98

* * *

target: Sodium- and chloride-dependent GABA transporter 1 (Mus musculus) (UniProt P31648); assay: Inhibition of NO711 binding to mouse GAT1 expressed in HEK293 cell membranes assessed as residual binding at 1 uM preincubated for 4 hrs followed by NO711 addition and measured after 40 mins by LC-ESI-MS/MS analysis relative to control
What Activity was measured for each of the following?
Give bare numbers, in %.

O=Cc1ccc(-c2cccc(C(F)(F)F)c2)o1 :: 70
O=C(O)[C@H]1CNC[C@@H](CN/N=C/c2ccc(-c3ccc(Cl)cc3F)o2)C1 (racemic) :: 67
O=Cc1sccc1-n1cccc1 :: 82
Cc1ccccc1-c1ccsc1/C=N/NCC[C@@H]1CNC[C@H](C(=O)O)C1 (racemic) :: 64
O=Cc1ccccc1-n1cccc1 :: 92
O=C(O)[C@H]1CNC[C@@H](CN/N=C/c2ccc(-c3ccc(Cl)cc3Cl)o2)C1 (racemic) :: 40
O=C(O)[C@H]1CNC[C@@H](CCN/N=C/c2ccc(-c3ccccc3Cl)o2)C1 (racemic) :: 52
O=C(O)[C@H]1CNC[C@@H](CCN/N=C/c2ccc(-c3cccc4ccccc34)o2)C1 (racemic) :: 58

// next entry
What value of Activity has been recorded for this entry: O=Cc1sccc1-c1ccc(Cl)cc1
113
